compounds and their reported Ki
# experimental target: Human liver cathepsin B (Homo sapiens (Human))
# assay text: In vitro cathepsin Ki inhibition measurements, cathepsin B
# Assay type: biochemical
# assay context: read-out: In vitro Ki (nM) vs Cath B

Recorded results for 5 compounds are shown here.
O=C(N[C@H](C(=O)N1C[C@@H](Cl)[C@H]2OCC(=O)[C@H]21)C1CCCCC1)c1cccc(-n2ccnc2)c1 | 5000 nM
C[C@H]1CC[C@H]([C@H](NC(=O)c2cccc(-n3cnnn3)c2)C(=O)N2C[C@H](Cl)[C@H]3OCC(=O)[C@H]32)CC1 | > 10000 nM
CC1(C)CCC([C@H](NC(=O)c2cccc(-n3cnnn3)c2)C(=O)N2C[C@H](Cl)[C@H]3OCC(=O)[C@H]32)CC1 | > 10000 nM
CC1CCC([C@H](NC(=O)c2ccccc2)C(=O)N2CC[C@H]3OCC(=O)[C@H]32)CC1 (stereo partly drawn) | > 10000 nM
O=C(N[C@H](C(=O)N1C[C@H](Cl)[C@H]2OCC(=O)[C@H]21)C1CCCCC1)c1cccc(-n2cnnn2)c1 | 650 nM

Data request: Return reported Ki. Input compound: `C[C@H]1CC[C@H]([C@H](NC(=O)c2ccccc2)C(=O)N2C[C@H](Cl)[C@H]3OCC(=O)[C@H]32)CC1`
Data returned: > 10000 nM
